src = patent US20230002357A1

Consider the following molecules; for each one, report its percentage damage caused to the plant, five-point scale, IPOHE.
- Test system: IPOHE
- experiment.summary: Post-emergence Test, glasshouse, IPOHE
- Format: in vivo
- assay.setup: 250 g/ha, evaluated after 13 days

Guide cases for percentage damage caused to the plant, five-point scale, IPOHE, answers given:
1. FC(F)Cn1nc(Cl)c2cccc(Oc3ncc(Cl)cn3)c21    2 (2=21-40%)
2. N#Cc1cc(Cl)cnc1Oc1cccc2cnn(CCCC(F)(F)F)c12    2 (2=21-40%)
3. CC(C)=CCCn1nc(Cl)c2cccc(Oc3ncc(Cl)cn3)c21    2 (2=21-40%)
4. COCCCn1nc(Cl)c2cccc(Oc3ncc(Cl)cn3)c21    2 (2=21-40%)
5. CCCCCCn1nc(Cl)c2cccc(Oc3ncc(Cl)cn3)c21    2 (2=21-40%)
6. COc1cc(Oc2cccc3cnn(CCCC(F)(F)F)c23)ncn1    1 (1=0-20%)
7. COc1nn(CCCC(F)(F)F)c2c(Oc3ncc(Cl)cn3)cccc12    1 (1=0-20%)
8. N#Cc1cc(Oc2ncc(Cl)cn2)c2c(c1)c(Cl)nn2CCCC(F)(F)F    1 (1=0-20%)
9. COCCn1nc(Cl)c2cccc(Oc3ncc(Cl)cn3)c21    4 (4=61-80%)
10. FC(F)(F)CCCn1ncc2c(Cl)ccc(Oc3ncc(Cl)cn3)c21    2 (2=21-40%)

Look at each molecule and report its percentage damage caused to the plant, five-point scale, IPOHE.
1. FC(F)(F)CCCn1ncc2cccc(Oc3ncc(Cl)cn3)c21
2. Fc1cc(Cl)cnc1Oc1cccc2c(Cl)nn(CCCC(F)(F)F)c12
3. C#CCn1nc(Cl)c2cccc(Oc3ncc(Cl)cn3)c21
4. FC(F)(F)CCCn1ncc2cc(Br)cc(Oc3ncc(Cl)cn3)c21
5. N#Cc1ccc2c(Cl)nn(CCCC(F)(F)F)c2c1Oc1ncc(Cl)cn1
6. Cc1ccc2cnn(CCCC(F)(F)F)c2c1Oc1ncc(Cl)cn1
7. Fc1cc(Cl)cnc1Oc1cccc2cnn(CCCC(F)(F)F)c12
8. Cl/C=C/Cn1nc(Cl)c2cccc(Oc3ncc(Cl)cn3)c21

Output:
["1 (1=0-20%)", "3 (3=41-60%)", "1 (1=0-20%)", "1 (1=0-20%)", "1 (1=0-20%)", "1 (1=0-20%)", "1 (1=0-20%)", "2 (2=21-40%)"]

Input: What percentage damage caused to the plant, five-point scale, IPOHE appears in the records for this molecule with IPOHE? `FC(F)(F)CCCn1nc(Br)c2cccc(Oc3ncc(Cl)cn3)c21`
Output: 2 (2=21-40%)
